Target or system UniProt P97612; metric pIC50; compiled from varied reports.
Molecular target: UniProt P97612
Sequence (P97612 whole entry): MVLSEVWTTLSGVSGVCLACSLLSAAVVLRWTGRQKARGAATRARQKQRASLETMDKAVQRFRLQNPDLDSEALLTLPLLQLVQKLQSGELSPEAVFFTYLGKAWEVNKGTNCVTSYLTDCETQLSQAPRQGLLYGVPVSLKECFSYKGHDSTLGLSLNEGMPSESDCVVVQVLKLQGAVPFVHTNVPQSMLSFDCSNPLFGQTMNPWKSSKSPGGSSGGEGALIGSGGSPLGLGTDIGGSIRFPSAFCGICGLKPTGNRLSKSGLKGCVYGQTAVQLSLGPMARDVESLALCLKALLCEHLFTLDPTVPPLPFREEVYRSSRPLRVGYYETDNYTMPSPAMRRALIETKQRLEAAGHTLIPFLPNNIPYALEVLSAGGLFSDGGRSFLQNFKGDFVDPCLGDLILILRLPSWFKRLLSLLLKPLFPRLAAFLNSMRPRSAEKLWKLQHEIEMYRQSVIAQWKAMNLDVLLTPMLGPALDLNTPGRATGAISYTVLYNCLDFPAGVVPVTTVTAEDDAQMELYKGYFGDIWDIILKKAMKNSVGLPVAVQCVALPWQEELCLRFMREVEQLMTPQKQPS
pIC50: −log10 of the molar value.
READOUT NAME: pIC50

Recorded pIC50, per entry:
smiles_code=Cc1ccc2nc(-c3ccc(NC(=O)C4CCN(S(=O)(=O)c5ccccc5)CC4)cc3)sc2c1 reported_value=7.89
smiles_code=CCCCCCCCc1ccc(OCC(=O)Cn2nnc3ccccc32)cc1 reported_value=7.82
smiles_code=O=C(Nc1cnc2[nH]ccc2c1)N1CCC2(CCN(Cc3cccc(Oc4ccc(Cl)cc4)c3)CC2)CC1 reported_value=7.07
smiles_code=CCn1c(=O)n([C@H]2CCCN(c3nccc(-c4cc5ccccc5s4)n3)C2)c2ncccc21 reported_value=7.59
smiles_code=O=C(Nc1cncc2ccccc12)N1C[C@H]2CN(Cc3cccc(Oc4ccc(Cl)cc4)c3)C[C@H]2C1 reported_value=6.47
smiles_code=O=C(Nc1cccnc1)N1CCC2(CCN(Cc3cccc(Oc4ccc(Cl)cc4)c3)CC2)C1 reported_value=6.38
smiles_code=O=C(N1CCCCC1)N1CC(O[C@@H](c2ccc(Cl)cc2)c2cccnc2Cl)C1 reported_value=6.95
smiles_code=Cc1ccccc1CNC(=O)Oc1ccc(C(=O)c2nc3ccccc3o2)cc1 reported_value=6.86

(I) CCCCOC[C@H]1CCCC[C@H]1COCCCC(=O)C(F)(F)F
(II) O=C(NCCCCCCn1cnc2ccccc21)Oc1ccccc1
Challenge: Which item exceeds the other in pIC50, I or II ? Returns: label corresponding to the selected item.
Response given: II
